B1: CPEB3 Ribozyme (parent)
chain: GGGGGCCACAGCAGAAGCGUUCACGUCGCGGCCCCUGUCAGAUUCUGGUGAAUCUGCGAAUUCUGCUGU

Variants of: B1
Assay: self-cleavage, relative activity (ratio to wild type); higher = more cleavage; co-transcriptional

{"Sequence change": "C18U G48C", "self-cleavage": 0.903}
{"Sequence change": "G11C U21G", "self-cleavage": 0.199}
{"Sequence change": "U46A A51U", "self-cleavage": 1.01}
{"Sequence change": "G14A A60U", "self-cleavage": 0.23}
{"Sequence change": "C6A G47C", "self-cleavage": 0.689}
{"Sequence change": "C39G G68A", "self-cleavage": 0.95}
{"Sequence change": "C18A C22U", "self-cleavage": 0.0813}
{"Sequence change": "G37A G65C", "self-cleavage": 0.258}
{"Sequence change": "C33G G47C", "self-cleavage": 0.638}
{"Sequence change": "G14U G31C", "self-cleavage": 0.163}
{"Sequence change": "G19A A59C", "self-cleavage": 0.194}
{"Sequence change": "U21G", "self-cleavage": 0.644}
{"Sequence change": "C39U G68U", "self-cleavage": 0.95}
{"Sequence change": "G17C U46C", "self-cleavage": 0.119}
{"Sequence change": "U20A A52U", "self-cleavage": 0.143}
{"Sequence change": "G30A U44C", "self-cleavage": 0.697}
{"Sequence change": "G11A A59U", "self-cleavage": 0.41}
{"Sequence change": "G2U C33A", "self-cleavage": 0.0922}
{"Sequence change": "U64G G65C", "self-cleavage": 0.679}
{"Sequence change": "A16U U61C", "self-cleavage": 0.599}
{"Sequence change": "G19A G65C", "self-cleavage": 0.127}
{"Sequence change": "G50U C54A", "self-cleavage": 0.858}
{"Sequence change": "C32U U69G", "self-cleavage": 1.03}
{"Sequence change": "G2C C34A", "self-cleavage": 0.0678}
{"Sequence change": "C18A A52G", "self-cleavage": 0.201}
{"Sequence change": "A23U G41U", "self-cleavage": 0.868}
{"Sequence change": "G4A U21G", "self-cleavage": 0.253}
{"Sequence change": "G4U A8U", "self-cleavage": 0.737}
{"Sequence change": "G5A G56C", "self-cleavage": 0.407}
{"Sequence change": "U43A G65U", "self-cleavage": 0.392}
{"Sequence change": "A23U A40C", "self-cleavage": 0.678}
{"Sequence change": "G50C G68C", "self-cleavage": 0.964}
{"Sequence change": "G3C G37U", "self-cleavage": 0.0466}
{"Sequence change": "C57U G58U", "self-cleavage": 0.42}
{"Sequence change": "U44G G47A", "self-cleavage": 0.954}
{"Sequence change": "G5C G28C", "self-cleavage": 0.0894}
{"Sequence change": "A40U U62A", "self-cleavage": 0.436}
{"Sequence change": "C22A U61A", "self-cleavage": 0.219}
{"Sequence change": "U44G G58U", "self-cleavage": 0.959}
{"Sequence change": "C12U U55C", "self-cleavage": 0.83}
{"Sequence change": "G50U A59G", "self-cleavage": 1.04}
{"Sequence change": "C66A U69A", "self-cleavage": 0.969}
{"Sequence change": "C6U U64C", "self-cleavage": 0.829}
{"Sequence change": "A15G U36A", "self-cleavage": 0.203}
{"Sequence change": "G30C U55A", "self-cleavage": 0.466}
{"Sequence change": "G19A C32A", "self-cleavage": 0.174}
{"Sequence change": "U44G G68C", "self-cleavage": 1.01}
{"Sequence change": "U20G C29A", "self-cleavage": 0.198}
{"Sequence change": "A13U C45A", "self-cleavage": 0.764}
{"Sequence change": "C12G A52C", "self-cleavage": 0.792}
{"Sequence change": "C33G A52C", "self-cleavage": 0.461}
{"Sequence change": "C35U C66A", "self-cleavage": 0.828}
{"Sequence change": "C7A C66A", "self-cleavage": 0.354}
{"Sequence change": "C45G A59C", "self-cleavage": 0.638}
{"Sequence change": "C35U G56U", "self-cleavage": 0.859}
{"Sequence change": "C34A C66U", "self-cleavage": 0.874}
{"Sequence change": "C45A U61G", "self-cleavage": 0.6}
{"Sequence change": "G19C C45A", "self-cleavage": 0.178}
{"Sequence change": "A15U C39G", "self-cleavage": 0.622}
{"Sequence change": "G4C U61C", "self-cleavage": 0.169}
{"Sequence change": "C6U U53A", "self-cleavage": 0.977}
{"Sequence change": "C7A C54U", "self-cleavage": 0.614}
{"Sequence change": "A23C C33G", "self-cleavage": 0.439}
{"Sequence change": "U61A C66G", "self-cleavage": 0.44}
{"Sequence change": "A40U U53C", "self-cleavage": 0.296}
{"Sequence change": "G11C G58A", "self-cleavage": 0.82}
{"Sequence change": "A52U C54G", "self-cleavage": 0.835}
{"Sequence change": "A15U G48A", "self-cleavage": 0.925}
{"Sequence change": "G4A C39U", "self-cleavage": 0.544}
{"Sequence change": "G17U G31A", "self-cleavage": 0.191}
{"Sequence change": "C32G C54A", "self-cleavage": 0.356}
{"Sequence change": "G3C U36G", "self-cleavage": 0.329}
{"Sequence change": "C22G C35A", "self-cleavage": 0.169}
{"Sequence change": "G5U G28C", "self-cleavage": 0.0876}
{"Sequence change": "G58C A60C", "self-cleavage": 0.359}
{"Sequence change": "A10U C54U", "self-cleavage": 1.01}
{"Sequence change": "C33G C54U", "self-cleavage": 0.727}
{"Sequence change": "G4A G30U", "self-cleavage": 0.0939}
{"Sequence change": "G2U U43A", "self-cleavage": 0.118}
{"Sequence change": "G17C G25C", "self-cleavage": 0.12}
{"Sequence change": "C6G C34U", "self-cleavage": 0.304}
{"Sequence change": "C22U C63G", "self-cleavage": 0.156}
{"Sequence change": "C24A U67G", "self-cleavage": 0.693}
{"Sequence change": "G1A G5U", "self-cleavage": 0.0571}
{"Sequence change": "U38A G65U", "self-cleavage": 0.633}
{"Sequence change": "C34A C66G", "self-cleavage": 0.667}
{"Sequence change": "G25A U55C", "self-cleavage": 0.152}
{"Sequence change": "G37A G65U", "self-cleavage": 0.325}
{"Sequence change": "A8C C32G", "self-cleavage": 0.227}
{"Sequence change": "C24U C33G", "self-cleavage": 0.294}
{"Sequence change": "C22U C66A", "self-cleavage": 0.19}
